Origin of the recorded values: paper PMC9482650

Target: T1, ARHGAP21, Q5T5U3
T1 sequence (Q5T5U3 45-169, limits assumed, looked up): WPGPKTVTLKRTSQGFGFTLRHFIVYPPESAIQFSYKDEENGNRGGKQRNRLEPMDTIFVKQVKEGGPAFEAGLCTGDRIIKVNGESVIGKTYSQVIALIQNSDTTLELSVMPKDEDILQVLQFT
Assay: holdup assay
Parameters: key: below the threshold = too weak to quantify, mostly under pKd 3.1 to 4
Details: plain residues with an end cap or a label only (N-terminal biotin on a linker: ado-ado)
Decide by pKd: equal to or exceeding 4 means 1, less means 0.

Previously resolved entries follow.
{"columns": ["binder", "qualitative.label"],
 "data": [
  ["HDDYFYHDEL [RCN2, Q14257]", 1],
  ["STYCDYTIEI [FAM71C, Q8NEG0]", 1],
  ["PGKKPEDSRV [SLCO2B1, O94956]", 0],
  ["QKNKDREYYV [NRXN3, Q9HDB5]", 1],
  ["FVFESRKEIL [TBPL1, P62380]", 0]
]}

Task: Check the entry SKQFDKNAYV [CLDN10, P78369] : does pKd equal or exceed 4?
Output: 0
